- Target desc: Rat GnRH Receptor (Rattus norvegicus, UniProt P30969)
- Construct: from tissue; host or cells: anterior pituitary of male Wistar rats (8 weeks old), membrane fraction
- Sequence (P30969 1-327): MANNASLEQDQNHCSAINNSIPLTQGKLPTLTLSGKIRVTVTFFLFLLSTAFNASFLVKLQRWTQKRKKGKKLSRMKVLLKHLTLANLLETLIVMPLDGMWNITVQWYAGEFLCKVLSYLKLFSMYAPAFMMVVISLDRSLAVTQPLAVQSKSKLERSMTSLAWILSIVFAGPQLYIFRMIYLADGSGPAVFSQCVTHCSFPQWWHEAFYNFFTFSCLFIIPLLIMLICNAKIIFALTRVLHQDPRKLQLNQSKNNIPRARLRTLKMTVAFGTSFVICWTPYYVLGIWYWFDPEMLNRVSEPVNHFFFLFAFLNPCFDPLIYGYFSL
- Assay details: ^125 I-leuprolerin binding inhibition, rat anterior pituitary membrane fraction
- Set-up: species or system rat (Wistar)
- Details: 4° C. for 90 minutes, read-out: GnRH-receptor binding inhibitory activity (IC50, μM) Rat
Counter-ions that a name gives are not always drawn.
Doc: threshold 0.009 µM (exclusive). Items with IC50 beneath it return Fulfilled; others return Not fulfilled.

Molecule: COc1ccc(CCC(=O)NCCCC(CCCN2CCCCC23CCc2cc(OC)c(OC)cc2C3)(c2ccccc2)c2ccccc2)cc1 (stereo not drawn) [II-65, hydrochloride]
Discrete label: Fulfilled

Molecule: COc1cccc2c1CC1(CCCCN1CCCC(CCCNC(C)=O)(c1ccccc1)c1ccccc1)CC2 (stereo not drawn) [II-44, dihydrochloride]
Discrete label: Not fulfilled

Molecule: COc1cc2c(cc1OC)CC1(CCCCN1CCCC(CCCNC(=O)Cc1ccc(Cl)cc1)(c1ccccc1)c1ccccc1)CC2 (stereo not drawn) [II-51, hydrochloride]
Discrete label: Fulfilled

Molecule: COc1ccc2c(c1)CCC1(CCCCN1CCCC(CCNC(C)=O)(c1ccccc1)c1ccccc1)C2 (stereo not drawn) [II-37, dihydrochloride]
Discrete label: Not fulfilled

Molecule: COc1cc2c(cc1OC)CC1(CCCCN1CCCC(CCCNC(=O)Cc1ccc3c(c1)OCO3)(c1ccccc1)c1ccccc1)CC2 (stereo not drawn) [II-60, hydrochloride]
Discrete label: Fulfilled

Molecule: COc1cc2c(cc1OC)CC1(CCCCN1CCCC(CCCNC(=O)Cc1cccc3ccccc13)(c1ccccc1)c1ccccc1)CC2 (stereo not drawn) [II-66, hydrochloride]
Discrete label: Fulfilled

Molecule: COc1cc2c(cc1OC)CC1(CCCCN1CCCC(CCCNC(=O)Cc1ccccc1)(c1ccccc1)c1ccccc1)CC2 (stereo not drawn) [II-48, hydrochloride]
Discrete label: Fulfilled

Molecule: COc1cc2c(cc1OC)CC1(CCCCN1CCCC(CCCNC(C)=O)(c1ccccc1)c1ccccc1)CC2 (stereo not drawn) [II-46, dihydrochloride]
Discrete label: Fulfilled

Molecule: COc1cc2c(cc1OC)CC(N(CCCC(CCCNC(C)=O)(c1ccccc1)c1ccccc1)Cc1ccccc1)CC2 (stereo not drawn) [II-43, dihydrochloride]
Discrete label: Not fulfilled

Molecule: COc1cc2c(cc1OC)CC1(CCCCN1CCCC(CCCNC(=O)Cc1ccc([N+](=O)[O-])cc1)(c1ccccc1)c1ccccc1)CC2 (stereo not drawn) [II-53, hydrochloride]
Discrete label: Not fulfilled

###

- Target desc: Human GnRH receptor (Homo sapiens)
- Construct: expressed in transfected cells; host or cells: CHO (Chinese hamster ovary) cells, membrane fraction
- Sequence (P30968 whole entry): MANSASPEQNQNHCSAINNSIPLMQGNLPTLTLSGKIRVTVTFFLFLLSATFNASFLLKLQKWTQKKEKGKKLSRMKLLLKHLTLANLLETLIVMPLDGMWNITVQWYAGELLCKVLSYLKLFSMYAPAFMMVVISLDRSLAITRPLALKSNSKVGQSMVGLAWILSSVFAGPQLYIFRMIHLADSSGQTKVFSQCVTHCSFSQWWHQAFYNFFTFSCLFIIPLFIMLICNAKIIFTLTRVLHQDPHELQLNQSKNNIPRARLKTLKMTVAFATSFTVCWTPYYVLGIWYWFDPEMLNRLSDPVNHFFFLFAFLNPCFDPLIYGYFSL
- Assay details: ^125 I-leuprolerin binding inhibition, human GnRH receptor-expressed CHO cell membrane fraction
- Details: 25° C. for 60 minutes, read-out: GnRH-receptor binding inhibitory activity (IC50, μM) Man
- Protocol: A tube was filled with 10 μl of an aqueous solution of leuprolerin (3×10^4 M) and lactoperoxidase (0.01 mg/ml) followed by addition of 10 μl of Na^125 I solution (37 MBq). After stirring, 10 μl of 0.001% H2 O2 was added and the reaction was conducted at room temperature for 20 minutes. […] After filtration, the radioactivity of the residual ^125 I-leuprolerin on the filter was measured using a γ-counter. […]
Where a name gives a salt, the structure may show the parent alone.
Threshold check on IC50: strictly below 0.2 µM is True; on or above 0.2 µM is False.

Compound: COc1cc2c(cc1OC)CC1(CCCCN1CCCC(CCCNC(=O)Cc1ccc([N+](=O)[O-])cc1)(c1ccccc1)c1ccccc1)CC2 (stereo not drawn) [II-53, hydrochloride]
Discrete label: False
--
Compound: COc1cc2c(cc1OC)CC1(CCCCN1CCCC(CCCNC(=O)Cc1ccsc1)(c1ccccc1)c1ccccc1)CC2 (stereo not drawn) [II-63, hydrochloride]
Discrete label: False
--
Compound: COc1cc2c(cc1OC)CC1(CCCCN1CCCC(CCCNC(=O)Cc1ccc(Cl)cc1)(c1ccccc1)c1ccccc1)CC2 (stereo not drawn) [II-51, hydrochloride]
Discrete label: True
--
Compound: COc1cc2c(cc1OC)CC1(CCCCN1CCCC(CCCNC(=O)Cc1ccc3c(c1)OCO3)(c1ccccc1)c1ccccc1)CC2 (stereo not drawn) [II-60, hydrochloride]
Discrete label: True
--
Compound: COc1ccc(CC(=O)NCCCC(CCCN2CCCCC23CCc2cc(OC)c(OC)cc2C3)(c2ccccc2)c2ccccc2)cc1 (stereo not drawn) [II-58, hydrochloride]
Discrete label: True
--
Compound: COc1ccc(CCC(=O)NCCCC(CCCN2CCCCC23CCc2cc(OC)c(OC)cc2C3)(c2ccccc2)c2ccccc2)cc1 (stereo not drawn) [II-65, hydrochloride]
Discrete label: True
--
Compound: COc1ccc(CC(=O)NCCCC(CCCN2CCCCC23CCc2cc(OC)c(OC)cc2C3)(c2ccccc2)c2ccccc2)cc1OC (stereo not drawn) [II-59, hydrochloride]
Discrete label: False
--
Compound: COc1cc2c(cc1OC)CC1(CCCCN1CCCC(CCCNC(=O)Cc1ccc(F)cc1)(c1ccccc1)c1ccccc1)CC2 (stereo not drawn) [II-50, hydrochloride]
Discrete label: True
--
Compound: COc1cc2c(cc1OC)CC1(CCCCN1CCCC(CCCNC(=O)Cc1cccc3ccccc13)(c1ccccc1)c1ccccc1)CC2 (stereo not drawn) [II-66, hydrochloride]
Discrete label: False
--
Compound: COc1ccc(CC(=O)NCCCC(CCCN2CCCCC23CCc2cc(OC)c(OC)cc2C3)(c2ccc(F)cc2)c2ccc(F)cc2)cc1 (stereo not drawn) [II-68, hydrochloride]
Discrete label: False

###

Reported IC50 is given for each of the following compounds.
- Target desc: Rat GnRH Receptor (Rattus norvegicus)
- Construct: from tissue; host or cells: anterior pituitary of male Wistar rats (8 weeks old), membrane fraction
- Assay details: ^125 I-leuprolerin binding inhibition, rat anterior pituitary membrane fraction
- Parameters: species or system rat (Wistar)
- Details: 4° C. for 90 minutes, read-out: GnRH-receptor binding inhibitory activity (IC50, μM) Rat
Where a name gives a salt, the structure may show the parent alone.

Compound: COc1ccc(CC(=O)NCCCC(CCCN2CCCCC23CCc2cc(OC)c(OC)cc2C3)(c2ccccc2)c2ccccc2)cc1OC (stereo not drawn) [II-59, hydrochloride]
Target desc: Rat GnRH Receptor (Rattus norvegicus)
Unit: µM
IC50: 0.02
--
Compound: COc1cc2c(cc1OC)CC1(CCCCN1CCCC(CCCNC(=O)COc1ccccc1)(c1ccccc1)c1ccccc1)CC2 (stereo not drawn) [II-61, hydrochloride]
Target desc: Rat GnRH Receptor (Rattus norvegicus)
Unit: µM
IC50: 0.01
--
Compound: COc1ccc2c(c1)CCC1(CCCCN1CCCC(CCCNC(C)=O)(c1ccccc1)c1ccccc1)C2 (stereo not drawn) [II-45, dihydrochloride]
Target desc: Rat GnRH Receptor (Rattus norvegicus)
Unit: µM
IC50: 0.08
--
Compound: COc1ccc(CC(=O)NCCCC(CCCN2CCCCC23CCc2cc(OC)c(OC)cc2C3)(c2ccccc2)c2ccccc2)cc1 (stereo not drawn) [II-58, hydrochloride]
Target desc: Rat GnRH Receptor (Rattus norvegicus)
Unit: µM
IC50: 0.0016
--
Compound: COc1cc2c(cc1OC)CC1(CCCCN1CCCC(CCCNC(=O)Cc1ccc(F)cc1)(c1ccccc1)c1ccccc1)CC2 (stereo not drawn) [II-50, hydrochloride]
Target desc: Rat GnRH Receptor (Rattus norvegicus)
Unit: µM
IC50: 0.0007
--
Compound: COc1cc2c(cc1OC)CC1(CCCCN1CCCC(CCCNC(=O)Cc1ccsc1)(c1ccccc1)c1ccccc1)CC2 (stereo not drawn) [II-63, hydrochloride]
Target desc: Rat GnRH Receptor (Rattus norvegicus)
Unit: µM
IC50: 0.001
